target: GHSR-1a (HEK293/GHSR1a cell line) (Homo sapiens)
Construct: expressed in transfected cells; host or cells: HEK293/GHSR1a cell line
Sequence (Q92847 whole entry): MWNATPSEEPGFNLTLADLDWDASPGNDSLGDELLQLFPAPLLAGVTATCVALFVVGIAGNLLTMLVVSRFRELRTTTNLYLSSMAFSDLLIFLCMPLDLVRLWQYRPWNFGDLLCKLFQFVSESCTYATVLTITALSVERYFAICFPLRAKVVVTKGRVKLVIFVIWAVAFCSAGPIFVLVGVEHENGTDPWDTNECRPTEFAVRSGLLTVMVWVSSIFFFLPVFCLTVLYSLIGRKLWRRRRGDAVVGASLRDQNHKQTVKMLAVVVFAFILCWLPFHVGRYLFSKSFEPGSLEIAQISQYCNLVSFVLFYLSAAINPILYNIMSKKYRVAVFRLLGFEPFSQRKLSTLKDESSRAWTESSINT
procedure.details: Ghrelin antagonist potency (IC50) with calcium FLIPR assay, ghrelin 10 nM
Type: cell-based
settings: ghrelin antagonist potency, read-out: Activity IC50
pIC50: −log10 of the molar value.
Tick Satisfied if pIC50 is 7 or greater. Tick Not satisfied if pIC50 is less than 7.

Query: Is pIC50 at least 7? Consider CC(NC(=O)Nc1ccc(S(=O)(=O)Cc2ccc3c(c2)C(F)(F)CN(C)C3)cc1)c1cccc(Cl)c1Cl (stereo not shown)
Reply: Not satisfied

Query: Textbook exercise: given the entry `O=C(Nc1ccc(S(=O)(=O)Cc2ccc3c(c2)CNC3)cc1)N(O)Cc1ccccc1` , state whether its pIC50 is greater than or equal to 7.
Reply: Not satisfied

Query: Is pIC50 at least 7? Consider C[C@@H](NC(=O)Nc1ccc(S(=O)(=O)Cc2ccc3c(c2)C(F)CN(C)C3)cc1)c1cccc(Cl)c1Cl (stereo partly shown)
Reply: Not satisfied

Query: Quick check: does CC(NC(=O)Nc1ccc(S(=O)(=O)CC2=CC3CCC(C2)N3)cc1)c1cccc(Cl)c1Cl (stereo not shown) have pIC50 greater than or equal to 7?
Reply: Not satisfied

Query: // inclusive: pIC50 at least 7? input: COc1cc(S(=O)(=O)Cc2ccc3c(c2)CC(C)NC3)ccc1NC(=O)N(O)C(C)c1ccccc1 (stereo not shown)
Reply: Satisfied

Query: Hi team, for COc1cc(S(=O)(=O)Cc2ccc3c(c2)CN(C)C3)ccc1NC(=O)N(O)C(C)c1cccc(Cl)c1Cl (stereo not shown) , is the recorded pIC50 at or above 7?
Reply: Satisfied

Query: State whether the measured pIC50 reaches 7, counting equality as reaching it, for COc1cc(NC(=O)N(O)C(C)c2ccccc2F)ccc1S(=O)(=O)Cc1ccc2c(c1)CNC2 (stereo not shown)
Reply: Satisfied

Query: Hi, just wondering whether CC(c1ccccc1F)N(O)C(=O)Nc1ccc(S(=O)(=O)Cc2ccc3c(c2)CNC3)cc1.Cl (stereo not shown) shows pIC50 of 7 or higher.
Reply: Satisfied

Query: Entry CC(NC(=O)Nc1ccc(S(=O)(=O)Cc2ccc3c(c2)CNC3)c(Cl)c1)c1ccccc1 (stereo not shown) : is its pIC50 no less than 7?
Reply: Satisfied

Query: Tell me whether pIC50 is at least 7 here: `COc1cc(S(=O)(=O)Cc2nc3c(s2)CN(C)C3)ccc1NC(=O)N[C@@H](C)c1ccccc1`
Reply: Not satisfied

Query: Evaluate COc1cc(NC(=O)N(O)C(C)c2ccccc2)ccc1S(=O)(=O)Cc1ccc2c(c1)CN(C)C2 (stereo not shown) : pIC50 at minimum 7?
Reply: Satisfied

Query: Does the compound COc1cc(S(=O)(=O)Cc2ccc3c(c2)CNC3)ccc1NC(=O)N(O)C(C)c1ccccc1 (stereo not shown) have recorded pIC50 that is 7 or more?
Reply: Satisfied

Query: Decide: pIC50 of CC(NC(=O)Nc1ccc(S(=O)(=O)Cc2ccc3c(c2)CNC3)c(-c2ncco2)c1)c1ccccc1 (stereo not shown) >= 7?
Reply: Satisfied

Query: Does the compound Cc1ccc(C(C)NC(=O)Nc2ccc(S(=O)(=O)Cc3ccc4c(c3)CNC4)cc2)cc1C(F)F (stereo not shown) have recorded pIC50 that is 7 or more?
Reply: Satisfied

Query: Item COc1ccc(C(C)NC(=O)Nc2ccc(S(=O)(=O)Cc3ccc4c(c3)CNC4)cc2)cc1Cl (stereo not shown) [H1477] with pIC50 of 7 or above?
Reply: Satisfied

* * *

target: GHSR-1a (HEK293/GHSR1a cell line) (Homo sapiens)
Construct: expressed in transfected cells; host or cells: HEK293/GHSR1a cell line
procedure.details: Ghrelin antagonist potency (IC50) with calcium FLIPR assay, ghrelin 10 nM
Type: cell-based
settings: HEK293/GHSR1a, ghrelin 10 nM, read-out: Activity IC50 (ghrelin antagonist potency)
attribute.measured: IC50

The measured IC50 associated with COc1cc(S(=O)(=O)Cc2ccc3c(c2)CCN(C)C3)ccc1NC(=O)NC(C)c1c(F)cccc1F (stereo not shown) reads 19.5 nM

Documented IC50 of CC(NC(=O)Nc1ccc(S(=O)(=O)Cc2ccc3c(c2)C(=O)NC3)cc1)c1ccccc1 (stereo not shown) : 1200 nM

For record CC1Cc2cc(CS(=O)(=O)c3ccc(NC(=O)NC(C)c4ccccc4)cc3)ccc2CN1 (stereo not shown) the listed IC50 is 85.5 nM

The compound listed as COc1cc(S(=O)(=O)Cc2ccc3c(c2)CNC3)ccc1NC(=O)NC(C)c1ccccc1.Cl (stereo not shown) has a reported IC50 of 11.9 nM

* * *

procedure.details: Metabolic stability in mouse liver microsomes
Format: in vitro ADME
Provide the reported Metabolic Stability Study M = mouse of each item.
Provide the reading as a plain figure in µL/min/mg.

Record `C[C@H](NC(=O)Nc1ccc(S(=O)(=O)Cc2ccc(CC(C)(C)N)cc2)cc1)c1cccc(Cl)c1Cl` . Reported Metabolic Stability Study M = mouse: 74.4

The reported Metabolic Stability Study M = mouse of the molecule CC(NC(=O)Nc1ccc(S(=O)(=O)Cc2ccc3c(c2)CNC3)cc1C1CC1)c1ccccc1 (stereo not shown) was 149.3

Data point: `COc1cc(S(=O)(=O)Cc2ccc3c(c2)CCNC3)ccc1NC(=O)N[C@H](C)c1cccc(Cl)c1Cl` ; Metabolic Stability Study M = mouse = 13.2

Documented Metabolic Stability Study M = mouse of C[C@@H](NC(=O)Nc1ccc(S(=O)(=O)Cc2ccc3c(c2)C(F)CN(C)C3)cc1)c1cccc(Cl)c1Cl (stereo partly shown) : 354

Value of Metabolic Stability Study M = mouse reported for the molecule CC(NC(=O)Nc1ccc(S(=O)(=O)Cc2ccc3c(c2)CN(C)C3)cc1)c1c(F)cccc1F (stereo not shown) is 63.6

// field: Metabolic Stability Study M = mouse; key: COc1cc(S(=O)(=O)Cc2ccc3c(c2)CNC3)ccc1NC(=O)N(O)C(C)c1ccccc1 (stereo not shown) ; value = 56.6

Lab note: CC(NC(=O)Nc1c(F)cc(S(=O)(=O)Cc2ccc3c(c2)CNC3)cc1F)c1ccccc1.O=C(O)C(F)(F)F (stereo not shown) gave Metabolic Stability Study M = mouse of 19

The reported value for `C[C@H](NC(=O)Nc1ccc(S(=O)(=O)Nc2ccc(CC(C)(C)N)cc2)cc1)c1ccc(-c2cnccn2)c(Cl)c1Cl` in terms of Metabolic Stability Study M = mouse is 24.4

// Metabolic Stability Study M = mouse lookup, molecule = COc1cc(S(=O)(=O)Cc2ccc3c(c2)CNC3)ccc1NC(=O)NC(C)c1c(F)cccc1F (stereo not shown) , result: 122.4

Notebook: CC(NC(=O)Nc1ccc(S(=O)(=O)Nc2ccc3c(c2)CCN(C)C3)cc1)c1ccccc1F (stereo not shown) , Metabolic Stability Study M = mouse read as 58.1

The molecule listed as COc1cc(NC(=O)N(O)C(C)c2ccccc2F)ccc1S(=O)(=O)Cc1ccc2c(c1)CNC2 (stereo not shown) shows Metabolic Stability Study M = mouse equal to 18.4

Documented Metabolic Stability Study M = mouse of CC1Cc2cc(CS(=O)(=O)c3ccc(NC(=O)NC(C)c4ccccc4)cc3)ccc2CN1 (stereo not shown) : 22.2

Memo: CC(NC(=O)Nc1ccc(S(=O)(=O)Cc2ccc3c(c2)CCN(C)C3)cc1)c1cccc(F)c1F (stereo not shown) , reported Metabolic Stability Study M = mouse: 166.2

Form field Metabolic Stability Study M = mouse, entry `C[C@H](NC(=O)Nc1ccc(S(=O)(=O)Cc2ccc3c(c2)CN(C)CC3)cc1)c1ccccc1` : 123.8

The molecule `COc1ccc([C@@H](C)NC(=O)Nc2ccc(S(=O)(=O)Cc3ccc4c(c3)CCN(C)C4)cc2)c(Cl)c1Cl` showed Metabolic Stability Study M = mouse equal to 53.4

Value of measured Metabolic Stability Study M = mouse for the entry COc1cccc(C(C)NC(=O)Nc2ccc(S(=O)(=O)Cc3ccc4c(c3)CN(C)C4)cc2)c1 (stereo not shown) [H1327] : 144.8

* * *

procedure.details: Animal PK study in mouse via i.v., p.o. and s.c. administration
Type: in vivo
settings: plasma, po, 10 mg/kg, p.o., read-out: PK t1/2 p.o.
attribute.measured: half-life (min)
Number only, in min; omit the unit.

half-life reported for this compound COc1cc(S(=O)(=O)Cc2ccc3c(c2)CN(C)C3)ccc1NC(=O)NC(C)c1ccccc1 (stereo not shown) [H1388] : 89.4

The value of half-life measured for the compound C[C@H](NC(=O)Nc1ccc2c(c1)CC(c1ccc3c(c1)CNC3)S2(=O)=O)c1ccccc1 (stereo partly shown) [H1264] turned out to be 38.4

What the record says about CC(NC(=O)Nc1ccc(S(=O)(=O)Cc2ccc3c(c2)CN(C)C3)cc1O)c1ccccc1 (stereo not shown) [H1448] : half-life is 39.6

Memo: CC(c1ccccc1)N(C)C(=O)Nc1ccc(S(=O)(=O)Cc2ccc3c(c2)CN(C)C3)cc1 (stereo not shown) [H1381] , reported half-life: 101

Provenance of the data: patent US10501479B2
